assay.target: T1, CHIP domain fragment: TPR with the coiled-coil domain
T1 chain: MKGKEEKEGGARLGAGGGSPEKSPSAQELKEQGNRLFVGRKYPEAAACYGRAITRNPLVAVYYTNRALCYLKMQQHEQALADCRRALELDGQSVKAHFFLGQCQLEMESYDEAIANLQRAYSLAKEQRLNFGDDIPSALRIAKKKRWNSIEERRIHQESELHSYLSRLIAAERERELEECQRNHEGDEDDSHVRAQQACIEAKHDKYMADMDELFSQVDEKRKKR
method: FP
pKd: −log10 of the molar value. Ends that are not written are not given here. * marks the point of attachment. FITC = O=C1OC2(c3ccc(O)cc3Oc3cc(O)ccc32)c2ccc(NC(=S)*)cc21; Ahx = NCCCCCC(=O)O
quantity.kind: pKd

* {FITC-Ahx}-GSGPTIEEVD (C-terminal tail of HSP70; tracer of the fluorescence polarisation assay; also called HSP70 peptide tracer; source: synthetic peptide (Lifetein or Genscript)) [N-FITC-Ahx-GSGPTIEEVD] | 4.55
